Data credit: PubChem BioAssay AID2060612

Test system: 565232-114-T-J1-PDC complex spheroid viability
Test: Anticancer human tumor 565232-114-T-J1-PDC patient-derived bladder carcinoma cell line growth inhibition [CLK]
Conditions: second compound 10 µM; first compound 10 µM; active compounds read low
For each record, check the reported viability, T/C: if it is below 0.3% write 1, else write -1.

stdin: Quick check: viability, T/C of COc1cccc2c1C(=O)c1c(O)c3c(c(O)c1C2=O)CC(O)(C(=O)CO)CC3OC1CC(N)C(O)C(C)O1 (stereo not given) + CN1CCN(c2cc(C(=O)Nc3cc4cc(-c5cnn(C)c5)ccc4cn3)ccn2)CC1 under 0.3%?
stdout: -1

stdin: Quick check: viability, T/C of Nc1ccn(C2OC(CO)C(O)C2(F)F)c(=O)n1 (stereo not given) + CN1CCN(c2cc(C(=O)Nc3cc4cc(-c5cnn(C)c5)ccc4cn3)ccn2)CC1 under 0.3%?
stdout: -1

stdin: Quick check: viability, T/C of COc1cccc2c1C(=O)c1c(O)c3c(c(O)c1C2=O)CC(O)(C(=O)CO)CC3OC1CC(N)C(O)C(C)O1 (stereo not given) + CNC(=O)c1ccc(Nc2nc(OC3CCCC3)c3c(-c4ccc5nc(C)oc5c4)c[nH]c3n2)c(OC)c1 under 0.3%?
stdout: 1

stdin: Quick check: viability, T/C of Nc1ccccc1NC(=O)c1ccc(CNC(=O)OCc2cccnc2)cc1 + CN1CCN(c2cc(C(=O)Nc3cc4cc(-c5cnn(C)c5)ccc4cn3)ccn2)CC1 under 0.3%?
stdout: 1

stdin: Quick check: viability, T/C of O=C(c1cc(Cc2n[nH]c(=O)c3ccccc23)ccc1F)N1CCN(C(=O)C2CC2)CC1 + CNC(=O)c1ccc(Nc2nc(OC3CCCC3)c3c(-c4ccc5nc(C)oc5c4)c[nH]c3n2)c(OC)c1 under 0.3%?
stdout: -1

----------
Test system: 565232-114-T-J1-PDC complex spheroid viability
Assay: Anticancer human tumor 565232-114-T-J1-PDC cell line growth inhibition [CLK]; active = viability on the fitted dose curve at most 10% of control; inactive = the rest;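 note: spheroids exposed to compounds for 7 days before readout; 100% = DMSO vehicle wells with luminescence normalized to vehicle control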
Conditions: second compound 10 µM; first compound 0.1 µM
Please reply with one of these outcomes: true (active), false (inactive)

Solved entries:
COMPOUND	CLASS
C#Cc1c(F)ccc2cc(O)cc(-c3ncc4c(N5CC6CCC(C5)N6)nc(OCC56CCCN5CC(F)C6)nc4c3F)c12 (configuration not stated) + CNC(=O)c1ccc(Nc2nc(OC3CCCC3)c3c(-c4ccc5nc(C)oc5c4)c[nH]c3n2)c(OC)c1	false
COc1c(OCCCN2CCOCC2)ccc2c3n(c(=NC(=O)c4cnc(N)nc4)nc12)CCN3 + CNC(=O)c1ccc(Nc2nc(OC3CCCC3)c3c(-c4ccc5nc(C)oc5c4)c[nH]c3n2)c(OC)c1	true
CCN1CCN(Cc2ccc(Nc3ncc(F)c(-c4cc(F)c5nc(C)n(C(C)C)c5c4)n3)nc2)CC1 + CNC(=O)c1ccc(Nc2nc(OC3CCCC3)c3c(-c4ccc5nc(C)oc5c4)c[nH]c3n2)c(OC)c1	false

stdin: Which outcome did this test record for the compound COc1cccc2c1C(=O)c1c(O)c3c(c(O)c1C2=O)CC(O)(C(=O)CO)CC3OC1CC(N)C(O)C(C)O1 (configuration not stated) + CN1CCN(c2cc(C(=O)Nc3cc4cc(-c5cnn(C)c5)ccc4cn3)ccn2)CC1 ?
stdout: true

stdin: Which outcome did this test record for the compound CCc1c2c(nc3ccc(O)cc13)-c1cc3c(c(=O)n1C2)COC(=O)[C@]3(O)CC + CNC(=O)c1ccc(Nc2nc(OC3CCCC3)c3c(-c4ccc5nc(C)oc5c4)c[nH]c3n2)c(OC)c1 ?
stdout: true

stdin: Which outcome did this test record for the compound Nc1ccn(C2OC(CO)C(O)C2(F)F)c(=O)n1 (configuration not stated) + CNC(=O)c1ccc(Nc2nc(OC3CCCC3)c3c(-c4ccc5nc(C)oc5c4)c[nH]c3n2)c(OC)c1 ?
stdout: false

stdin: Which outcome did this test record for the compound COc1cccc2c1C(=O)c1c(O)c3c(c(O)c1C2=O)CC(O)(C(=O)CO)CC3OC1CC(N)C(O)C(C)O1 (configuration not stated) + CNC(=O)c1ccc(Nc2nc(OC3CCCC3)c3c(-c4ccc5nc(C)oc5c4)c[nH]c3n2)c(OC)c1 ?
stdout: true
